test system: Streptococcus pyogenes; test: Antimicrobial activity against Streptococcus pyogenes after 24 hrs by microdilution method; format: functional
measurementLabel: MIC (µg/mL)
Report the figure in µg/mL without appending any unit label.

Give its MIC value. Item: CC[C@H]1OC(=O)[C@H](C)[C@@H](O[C@@H]2C[C@@](C)(OC)[C@@H](O)[C@H](C)O2)[C@H](C)[C@@H](O[C@@H]2O[C@H](C)C[C@H](N(C)C)[C@H]2O)[C@](C)(OC)C[C@@H](C)CN2/C(=N\c3cccc4ccccc34)O[C@H]([C@H]2C)[C@]1(C)O
1

====

system: Streptococcus pyogenes; test: Antimicrobial activity against Streptococcus pyogenes after 24 hrs by microdilution method; format: functional
measurementLabel: MIC (µg/mL)

(A) CC[C@H]1OC(=O)[C@H](C)[C@@H](O[C@@H]2C[C@@](C)(OC)[C@@H](O)[C@H](C)O2)[C@H](C)[C@@H](O[C@@H]2O[C@H](C)C[C@H](N(C)C)[C@H]2O)[C@](C)(O)C[C@@H](C)CN2/C(=N\C(C)C)O[C@H]([C@H]2C)[C@]1(C)O
(B) CC[C@H]1OC(=O)[C@H](C)[C@@H](O[C@@H]2C[C@@](C)(OC)[C@@H](O)[C@H](C)O2)[C@H](C)[C@@H](O[C@@H]2O[C@H](C)C[C@H](N(C)C)[C@H]2O)[C@](C)(OC)C[C@@H](C)CN2/C(=N\C(C)C)O[C@H]([C@H]2C)[C@]1(C)O
When their MIC values are compared, which is larger, A or B ? Kindly state the label of the option you pick.
A

====

system: Streptococcus pyogenes; assay: Antimicrobial activity against Streptococcus pyogenes after 24 hrs by microdilution method; type: functional
measurementLabel: MIC (µg/mL)

(1) CC[C@H]1OC(=O)[C@H](C)[C@@H](O)[C@H](C)[C@@H](O[C@@H]2O[C@H](C)C[C@H](N(C)C)[C@H]2O)[C@](C)(O)C[C@@H](C)CN2/C(=N\Cc3ccccc3)O[C@H]([C@H]2C)[C@]1(C)O
(2) CC[C@H]1OC(=O)[C@H](C)[C@@]2(O)O[C@@](C)(C[C@@H](C)CN3/C(=N\C(C)C)O[C@H]([C@H]3C)[C@]1(C)O)[C@H](O[C@@H]1O[C@H](C)C[C@H](N(C)C)[C@H]1O)[C@H]2C
When their MIC values are compared, which is larger, 1 or 2 ? Kindly state the label of the option you pick.
2
(2: 32 µg/mL, 1: 8 µg/mL)

====

This listing pairs molecules with measured MIC.
tested on: Streptococcus pyogenes; experiment: Antimicrobial activity against Streptococcus pyogenes after 24 hrs by microdilution method; assay type: functional

CC[C@H]1OC(=O)[C@H](C)[C@@H](O[C@@H]2C[C@@](C)(OC)[C@@H](O)[C@H](C)O2)[C@H](C)[C@@H](O[C@@H]2O[C@H](C)C[C@H](N(C)C)[C@H]2O)[C@](C)(O)C[C@@H](C)CN2/C(=N\c3ccc(-c4ccccc4)cc3OC)O[C@H]([C@H]2C)[C@]1(C)O :: < 0.125 µg/mL

Proceeding to the next molecule to report its MIC.
Give its MIC value. Item: CC[C@H]1OC(=O)[C@H](C)[C@@H](O[C@@H]2C[C@@](C)(OC)[C@@H](O)[C@H](C)O2)[C@H](C)[C@@H](O[C@@H]2O[C@H](C)C[C@H](N(C)C)[C@H]2O)[C@](C)(O)C[C@@H](C)CN2/C(=N\Cc3ccccc3)O[C@H]([C@H]2C)[C@]1(C)O
< 0.125 µg/mL
